measureName: melting point

[[record]]
molecule = "CC1(C)COC(c2cc(F)c(F)cc2F)=N1"
recordedresult = "53 to 54 °C"

[[record]]
molecule = "CCNC(=O)C1=C(OC(C)C)c2cc(OC)ccc2S1=O (configuration not stated)"
recordedresult = "88 to 90 °C"

[[record]]
molecule = "COc1cccc(CCCC(=O)O)c1C"
recordedresult = "105 to 107 °C"


Param item = `CC(C)(C)OC(=O)C(C)(C)Oc1ccc2c(c1)Nc1ccccc1S2` ; retrieve measured melting point.
138 to 140 °C

Param item = CC(F)(F)CC(Br)c1ccccc1S(N)(=O)=O (configuration not stated) ; retrieve measured melting point.
104 to 105 °C

Param item = `CN(C)C=CC(=O)c1ccccc1[N+](=O)[O-]` ; retrieve measured melting point.
118 to 121 °C

Param item = `Cc1nc(-c2[nH]c3ccccc3c2C=O)no1` ; retrieve measured melting point.
228 to 230 °C

Param item = `OCCCCc1ccc(N2CCOCC2)cc1` ; retrieve measured melting point.
51 to 52 °C

Param item = CC1C=CC(NC(=O)OC(C)(C)C)C([N+](=O)[O-])C1c1cc([N+](=O)[O-])ccc1Cl (configuration not stated) ; retrieve measured melting point.
195 to 203 °C

Param item = `Nc1nnc(Sc2ccccc2)s1` ; retrieve measured melting point.
202 to 203 °C

Param item = `O=S(=O)(c1nc[nH]n1)C(F)(F)Br` ; retrieve measured melting point.
176 to 177 °C

Param item = `CNc1nc(Br)cc(S(=O)(=O)c2ccccc2)n1` ; retrieve measured melting point.
142 to 143 °C
